- System: 898857-211-R-J1-PDC complex spheroids, growth % test/control
- protocol.text: Anticancer human tumor 898857-211-R-J1-PDC patient-derived melanoma cell line growth inhibition [RAS]
- run.conditions: second compound 0.3 µM; first compound 1 µM; hits give low values
readout.type: viability, T/C

For orientation, consider the following solved cases.
- molecule: "C[C@@H](NC(=O)c1ncnc(N)c1Cl)c1ncc(C(=O)Nc2cc(C(F)(F)F)c(Cl)cn2)s1 + CCn1c(-c2cc(N3CCN(C)CC3)cnc2C(C)OC)c2c3cc(ccc31)-c1csc(n1)CC(NC(=O)C1CC1C)C(=O)N1CCCC(N1)C(=O)OCC(C)(C)C2"
  viability, T/C: "56.8%"
- molecule: "O=C(c1ccc(F)c(F)c1Nc1ccc(I)cc1F)N1CC(O)([C@@H]2CCCCN2)C1 + CCn1c(-c2cccnc2C(C)OC)c2c3cc(ccc31)N1CCOC(CC(NC(=O)C(C(C)C)N(C)C(=O)C3(F)CCN(C(=O)C#CC(C)(C)N(C)C)CC3)C(=O)N3CCCC(N3)C(=O)OCC(C)(C)C2)C1"
  viability, T/C: "10.7%"

We next turn to a different molecule, shown below.
// viability, T/C lookup, molecule = CC(=O)OC12COC1CC(O)C1(C)C(=O)C(O)C3=C(C)C(OC(=O)C(O)C(NC(=O)OC(C)(C)C)c4ccccc4)CC(O)(C(OC(=O)c4ccccc4)C21)C3(C)C (stereo not drawn) + CCn1c(-c2cc(N3CCN(C)CC3)cnc2C(C)OC)c2c3cc(ccc31)-c1csc(n1)CC(NC(=O)C1CC1C)C(=O)N1CCCC(N1)C(=O)OCC(C)(C)C2 , result: 15.8%

----------
- Test system: 898857-211-R-J1-PDC complex spheroids, growth % test/control
- protocol.text: Anticancer human tumor 898857-211-R-J1-PDC cell line growth inhibition [RAS]; active means viability on the fitted dose curve at most 10% of control; inactive means the rest;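 further: spheroids exposed to compound for seven days before readout; 100% = DMSO vehicle control wells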
- run.conditions: second compound 0.000949 µM; first compound 10 µM
// allowed return values: true (1) (active), false (0) (inactive)

- molecule: "Cc1nc(N2CCC3(CC2)COC(C)C3N)c(CO)nc1Sc1ccnc(N)c1Cl (stereo not drawn) + CCn1c(-c2cccnc2C(C)OC)c2c3cc(ccc31)N1CCOC(CC(NC(=O)C(C(C)C)N(C)C(=O)C3(F)CCN(C(=O)C#CC(C)(C)N(C)C)CC3)C(=O)N3CCCC(N3)C(=O)OCC(C)(C)C2)C1"
  assigned.class: "false (0)"
- molecule: "CCC(CC)c1cc(NC2CCC(N)C2)n2nccc2n1 (stereo not drawn) + CCn1c(-c2cc(N3CCN(C)CC3)cnc2C(C)OC)c2c3cc(ccc31)-c1csc(n1)CC(NC(=O)C1CC1C)C(=O)N1CCCC(N1)C(=O)OCC(C)(C)C2"
  assigned.class: "true (1)"

query: # outcome recorded in this test, key = CCC(CC)c1cc(NC2CCC(N)C2)n2nccc2n1 (stereo not drawn) + CCn1c(-c2cccnc2C(C)OC)c2c3cc(ccc31)N1CCOC(CC(NC(=O)C(C(C)C)N(C)C(=O)C3(F)CCN(C(=O)C#CC(C)(C)N(C)C)CC3)C(=O)N3CCCC(N3)C(=O)OCC(C)(C)C2)C1
result: true (1)

----------
- Tested on: 898857-211-R-J1-PDC complex spheroids, growth % test/control
- protocol.text: Anticancer human tumor 898857-211-R-J1-PDC cell line growth inhibition [RAS];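 further: spheroids exposed to compound for seven days before readout; 100% = DMSO vehicle control wells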
- run.conditions: second compound 0.03 µM; first compound 0.00316 µM; hits give low values
Quick list: viability, T/C per entry.
Record the value in %, omitting the unit from your answer.

For orientation, consider the following solved cases.
- compound: "CC(C)n1nc(-c2ccc3oc(N)nc3c2)c2c(N)ncnc21 + CCn1c(-c2cccnc2C(C)OC)c2c3cc(ccc31)N1CCOC(CC(NC(=O)C(C(C)C)N(C)C(=O)C3(F)CCN(C(=O)C#CC(C)(C)N(C)C)CC3)C(=O)N3CCCC(N3)C(=O)OCC(C)(C)C2)C1"
  unit.name: "%"
  viability, T/C: 79.9
- compound: "C=CC(=O)Nc1cc(Nc2nccc(-c3cn(C)c4ccccc34)n2)c(OC)cc1N(C)CCN(C)C + CCn1c(-c2cccnc2C(C)OC)c2c3cc(ccc31)N1CCOC(CC(NC(=O)C(C(C)C)N(C)C(=O)C3(F)CCN(C(=O)C#CC(C)(C)N(C)C)CC3)C(=O)N3CCCC(N3)C(=O)OCC(C)(C)C2)C1"
  unit.name: "%"
  viability, T/C: 107
- compound: "Nc1ccn(C2OC(CO)C(O)C2(F)F)c(=O)n1 (centres undefined) + CCn1c(-c2cc(N3CCN(C)CC3)cnc2C(C)OC)c2c3cc(ccc31)-c1csc(n1)CC(NC(=O)C1CC1C)C(=O)N1CCCC(N1)C(=O)OCC(C)(C)C2"
  unit.name: "%"
  viability, T/C: 78

We next turn to a different compound, shown below.
// viability, T/C lookup, compound = CC(C)n1nc(-c2ccc3oc(N)nc3c2)c2c(N)ncnc21 + CCn1c(-c2cc(N3CCN(C)CC3)cnc2C(C)OC)c2c3cc(ccc31)-c1csc(n1)CC(NC(=O)C1CC1C)C(=O)N1CCCC(N1)C(=O)OCC(C)(C)C2 , result: 69.5
